Test system: Oryza sativa
test_details: Crop compatibility post-emergence (greenhouse pot trial)
Assay type: in vivo
assay_conditions: application rate 20 g/ha
measure: Oryza sativa (Efficacy in %)

// solved cases for Oryza sativa (Efficacy in %) follow
Form: molecule = Cn1c(C(F)(F)F)cc(=O)n(-c2cc(SCC(C)(C)C(=O)OCC3CCCO3)c(Cl)cc2F)c1=O (centres unmarked) [I.48-71] ; Oryza sativa (Efficacy in %) = 20

Form: molecule = CC(Sc1cc(-n2c(=O)cc(C(F)(F)F)n(C)c2=O)c(F)cc1Cl)C(=O)OC1CCSCC1 (centres unmarked) [I.1-132] ; Oryza sativa (Efficacy in %) = 0

Form: molecule = CC(Sc1cc(-n2c(=O)cc(C(F)(F)F)n(C)c2=O)c(F)cc1Cl)C(=O)NCC1CCCS1(=O)=O (centres unmarked) [I.1-275] ; Oryza sativa (Efficacy in %) = 20

Form: molecule = CC(Sc1cc(-n2c(=O)cc(C(F)(F)F)n(C)c2=O)c(F)cc1Cl)C(=O)OC1CCCOC1 (centres unmarked) [I.1-126] ; Oryza sativa (Efficacy in %) = 0

I = Cc1c(C(F)(F)F)n(C)c(=O)n(-c2cc(SCC(C)(C)C(=O)NCC3CCCO3)c(Cl)cc2F)c1=O (centres unmarked) [I.54-221]
II = Cn1c(C(F)(F)F)cc(=O)n(-c2cc(SCC(C)(C)C(=O)OCC3CCOC3)c(Cl)cc2F)c1=O (centres unmarked) [I.48-72]
Ask: Just tell me: smaller Oryza sativa (Efficacy in %) value, I or II ? Let me know the label of the one you choose.
Reply: II
(II: 10%, I: 20%)

I = CC1CC(COC(=O)C(C)Sc2cc(-n3c(=O)cc(C(F)(F)F)n(C)c3=O)c(F)cc2Cl)CO1 (centres unmarked) [I.1-73]
II = CC(Sc1cc(-n2c(=O)cc(C(F)(F)F)n(C)c2=O)c(F)cc1Cl)C(=O)NCC1CCCCO1 (centres unmarked) [I.1-241]
III = Cc1c(C(F)(F)F)n(C)c(=O)n(-c2cc(SC(CC(C)C)C(=O)OCC3CCCCO3)c(Cl)cc2F)c1=O (centres unmarked) [I.14-91]
Ask: Please produce an ascending ranking of these molecules based on Oryza sativa (Efficacy in %). Output spec: a listing of the labels in the requested order.
Reply: III, I, II
(III: 0%, I: 5%, II: 10%)

a = CC(Sc1cc(-n2c(=O)cc(C(F)(F)F)n(C)c2=O)c(F)cc1Cl)C(=O)NCCCOCc1ccccc1 (centres unmarked) [I.1-180]
b = Cn1c(C(F)(F)F)cc(=O)n(-c2cc(SCC(C)(C)C(=O)NCC3CCCO3)c(Cl)cc2F)c1=O (centres unmarked) [I.48-221]
Ask: Endpoint returns the identifier whose Oryza sativa (Efficacy in %) is numerically larger, either a or b . Let me know the label of the one you choose.
Reply: b
(b: 10%, a: 0%)

P = CC(CC(=O)NCC1CCCO1)Sc1cc(-n2c(=O)cc(C(F)(F)F)n(C)c2=O)c(F)cc1Cl (centres unmarked) [I.49-221]
Q = CC(Sc1cc(-n2c(=O)cc(C(F)(F)F)n(C)c2=O)c(F)cc1Cl)C(=O)NCC1CCCO1 (centres unmarked) [I.1-221]
Ask: Just tell me: smaller Oryza sativa (Efficacy in %) value, P or Q ? Let me know the label of the one you choose.
Reply: Q

----------
Test system: Echinochloa crus-galli
test_details: Herbicidal action pre-emergence (greenhouse pot trial)
Type: in vivo
assay_conditions: application rate 320 g/ha, scored after about 3 weeks
measure: Echinochloa crus-galli (Efficacy in %)
Write down the numeric answer in % and omit the unit.

Tested on Echinochloa crus-galli: CCOCCOC(=O)C(C)Sc1cc(-n2c(=O)cc(C(F)(F)F)n(C)c2=O)c(F)cc1Cl (stereo not drawn) [I.1-2] . Observed Echinochloa crus-galli (Efficacy in %): 100

Tested on Echinochloa crus-galli: CC(Sc1cc(-n2c(=O)cc(C(F)(F)F)n(C)c2=O)c(F)cc1Cl)C(=O)NCC1CCCO1 (stereo not drawn) [I.1-221] . Observed Echinochloa crus-galli (Efficacy in %): 100

Tested on Echinochloa crus-galli: COCCCOC(=O)C(C)Sc1cc(-n2c(=O)cc(C(F)(F)F)n(C)c2=O)c(F)cc1Cl (stereo not drawn) [I.1-26] . Observed Echinochloa crus-galli (Efficacy in %): 100

Tested on Echinochloa crus-galli: CC(Sc1cc(-n2c(=O)cc(C(F)(F)F)n(C)c2=O)c(F)cc1Cl)C(=O)OCC1CCOC1 (stereo not drawn) [I.1-72] . Observed Echinochloa crus-galli (Efficacy in %): 100

Tested on Echinochloa crus-galli: CC(Sc1cc(-n2c(=O)cc(C(F)(F)F)n(C)c2=O)c(F)cc1Cl)C(=O)NCC1CCCS1(=O)=O (stereo not drawn) [I.1-275] . Observed Echinochloa crus-galli (Efficacy in %): 100

Further cases:
Tested on Echinochloa crus-galli: CC(Sc1cc(-n2c(=O)cc(C(F)(F)F)n(C)c2=O)c(F)cc1Cl)C(=O)NCC1CCCO1 (stereo not drawn) [I.1-271] . Observed Echinochloa crus-galli (Efficacy in %): 100

Tested on Echinochloa crus-galli: COCCOCCOC(=O)C(C)Sc1cc(-n2c(=O)cc(C(F)(F)F)n(C)c2=O)c(F)cc1Cl (stereo not drawn) [I.1-23] . Observed Echinochloa crus-galli (Efficacy in %): 100

Tested on Echinochloa crus-galli: COCCOC(=O)C(C)Sc1cc(-n2c(=O)cc(C(F)(F)F)n(C)c2=O)c(F)cc1Cl (stereo not drawn) [I.1-1] . Observed Echinochloa crus-galli (Efficacy in %): 100

Tested on Echinochloa crus-galli: C=CCN(C(=O)C(C)Sc1cc(-n2c(=O)cc(C(F)(F)F)n(C)c2=O)c(F)cc1Cl)C(C)COC (stereo not drawn) [I.1-335] . Observed Echinochloa crus-galli (Efficacy in %): 100

Tested on Echinochloa crus-galli: CSCCNC(=O)C(C)Sc1cc(-n2c(=O)cc(C(F)(F)F)n(C)c2=O)c(F)cc1Cl (stereo not drawn) [I.1-181] . Observed Echinochloa crus-galli (Efficacy in %): 100

Tested on Echinochloa crus-galli: CC1CC(COC(=O)C(C)Sc2cc(-n3c(=O)cc(C(F)(F)F)n(C)c3=O)c(F)cc2Cl)CO1 (stereo not drawn) [I.1-73] . Observed Echinochloa crus-galli (Efficacy in %): 100

Tested on Echinochloa crus-galli: Cn1c(C(F)(F)F)cc(=O)n(-c2cc(SCC(C)(C)C(=O)OCC3CCCO3)c(Cl)cc2F)c1=O (stereo not drawn) [I.48-71] . Observed Echinochloa crus-galli (Efficacy in %): 100

----------
System: Lolium rigidum
test_details: Herbicidal action pre-emergence (greenhouse pot trial)
Assay type: in vivo
assay_conditions: application rate 320 g/ha
measure: Lolium rigidum (Efficacy in %)
Write down the numeric answer in % and omit the unit.

Form: compound = CC(Sc1cc(-n2c(=O)cc(C(F)(F)F)n(C)c2=O)c(F)cc1Cl)C(=O)NCC1CCCO1 (centres unmarked) [I.1-271] ; Lolium rigidum (Efficacy in %) = 100

Form: compound = Cn1c(C(F)(F)F)cc(=O)n(-c2cc(SCC(C)(C)C(=O)OCC3CCCO3)c(Cl)cc2F)c1=O (centres unmarked) [I.48-71] ; Lolium rigidum (Efficacy in %) = 90

Form: compound = CC(Sc1cc(-n2c(=O)cc(C(F)(F)F)n(C)c2=O)c(F)cc1Cl)C(=O)OCC1CCOC1 (centres unmarked) [I.1-72] ; Lolium rigidum (Efficacy in %) = 100

Form: compound = CCOCCCOC(=O)C(C)Sc1cc(-n2c(=O)cc(C(F)(F)F)n(C)c2=O)c(F)cc1Cl (centres unmarked) [I.1-27] ; Lolium rigidum (Efficacy in %) = 90

Form: compound = CC(Sc1cc(-n2c(=O)cc(C(F)(F)F)n(C)c2=O)c(F)cc1Cl)C(=O)NCC1CS(=O)(=O)CCO1 (centres unmarked) [I.1-333] ; Lolium rigidum (Efficacy in %) = 100

Form: compound = COCCOC(=O)C(C)Sc1cc(-n2c(=O)cc(C(F)(F)F)n(C)c2=O)c(F)cc1Cl (centres unmarked) [I.1-1] ; Lolium rigidum (Efficacy in %) = 80

Form: compound = CC(Sc1cc(-n2c(=O)cc(C(F)(F)F)n(C)c2=O)c(F)cc1Cl)C(=O)OCC1CCCO1 (centres unmarked) [I.1-71] ; Lolium rigidum (Efficacy in %) = 90

Form: compound = CC(Sc1cc(-n2c(=O)cc(C(F)(F)F)n(C)c2=O)c(F)cc1Cl)C(=O)NC1(C#N)CCSC1 (centres unmarked) [I.1-340] ; Lolium rigidum (Efficacy in %) = 100

Further cases:
Form: compound = CCOCCOC(=O)C(C)Sc1cc(-n2c(=O)cc(C(F)(F)F)n(C)c2=O)c(F)cc1Cl (centres unmarked) [I.1-2] ; Lolium rigidum (Efficacy in %) = 90

Form: compound = CC(Sc1cc(-n2c(=O)cc(C(F)(F)F)n(C)c2=O)c(F)cc1Cl)C(=O)NCC1CCCS1(=O)=O (centres unmarked) [I.1-275] ; Lolium rigidum (Efficacy in %) = 90

Form: compound = COCCCOC(=O)C(C)Sc1cc(-n2c(=O)cc(C(F)(F)F)n(C)c2=O)c(F)cc1Cl (centres unmarked) [I.1-26] ; Lolium rigidum (Efficacy in %) = 90
